In this section, each of the compounds is paired with its reported surviving fraction ratio K562 SF3B1 K700E / K562 SF3B1 WT.
System: K562 SF3B1 K700E vs K562 SF3B1 WT
Test: surviving fraction ratio K562 SF3B1 K700E / K562 SF3B1 WT (each relative to DMSO); higher = less selective killing of SF3B1 K700E cells
Conditions: 5nM; 5 days
OBSERVABLE: surviving fraction ratio K562 SF3B1 K700E / K562 SF3B1 WT

COMPOUND: O=C(NOCC1CC1)c1ccc(F)c(F)c1Nc1ccc(I)cc1Cl
MEASUREMENT TARGET: K562 SF3B1 K700E vs K562 SF3B1 WT
OBSERVED RESULT: 1.08
--
COMPOUND: Cn1c(=O)n(-c2ccc(C(C)(C)C#N)cc2)c2c3cc(-c4cnc5ccccc5c4)ccc3ncc21
MEASUREMENT TARGET: K562 SF3B1 K700E vs K562 SF3B1 WT
OBSERVED RESULT: 0.8
--
COMPOUND: C#Cc1cccc(Nc2ncnc3cc(OCCOC)c(OCCOC)cc23)c1 [erlotinib]
MEASUREMENT TARGET: K562 SF3B1 K700E vs K562 SF3B1 WT
OBSERVED RESULT: 0.852
--
COMPOUND: COCC[n+]1c2c(n(Cc3cnccn3)c1C)C(=O)c1ccccc1C2=O
MEASUREMENT TARGET: K562 SF3B1 K700E vs K562 SF3B1 WT
OBSERVED RESULT: 1.33
--
COMPOUND: Cc1nc(Nc2n[nH]c3c2CN(C(=O)N[C@H](CN(C)C)c2ccccc2)C3(C)C)c2sccc2n1
MEASUREMENT TARGET: K562 SF3B1 K700E vs K562 SF3B1 WT
OBSERVED RESULT: 1.09

* * *

System: K562 SF3B1 K700E vs K562 SF3B1 WT
Experiment: surviving fraction ratio K562 SF3B1 K700E / K562 SF3B1 WT (each relative to DMSO); higher = less selective killing of SF3B1 K700E cells
Settings: 50nM; 5 days
Measured surviving fraction ratio K562 SF3B1 K700E / K562 SF3B1 WT, listed per entry.
OBSERVABLE: surviving fraction ratio K562 SF3B1 K700E / K562 SF3B1 WT

COMPOUND: Oc1nc(-c2ccc(C(F)(F)F)cc2)nc2c1CSCC2
OBSERVED RESULT: 1.35
--
COMPOUND: C=CCNC1=C2C[C@@H](C)C[C@H](OC)[C@H](O)[C@@H](C)/C=C(\C)[C@H](OC(N)=O)[C@@H](OC)/C=C\C=C(/C)C(=O)NC(=CC1=O)C2=O
OBSERVED RESULT: 0.41
--
COMPOUND: O=C(O)CC[C@H]1CC[C@@](c2cc(F)ccc2F)(S(=O)(=O)c2ccc(Cl)cc2)CC1
OBSERVED RESULT: 0.852
--
COMPOUND: Cn1cc(C2=Nc3cc(NC(=O)C(N)C4CCCCC4)cc4c3C2=CNNC4=O)cn1 (centres undefined)
OBSERVED RESULT: 0.992

* * *

System: K562 SF3B1 K700E vs K562 SF3B1 WT
Test: surviving fraction ratio K562 SF3B1 K700E / K562 SF3B1 WT (each relative to DMSO); higher = less selective killing of SF3B1 K700E cells
Settings: 0.5nM; 5 days
OBSERVABLE: surviving fraction ratio K562 SF3B1 K700E / K562 SF3B1 WT

COMPOUND: CC(=O)O[C@H]1C(=O)[C@@]2(C)[C@H]([C@H](OC(=O)c3ccccc3)[C@]3(O)C[C@H](OC(=O)[C@H](O)[C@@H](NC(=O)c4ccccc4)c4ccccc4)C(C)=C1C3(C)C)[C@]1(OC(C)=O)CO[C@@H]1C[C@@H]2O
OBSERVED RESULT: 0.866

COMPOUND: Oc1nc(-c2ccc(C(F)(F)F)cc2)nc2c1CSCC2
OBSERVED RESULT: 1.15

COMPOUND: NS(=O)(=O)OC[C@@H]1C[C@@H](n2ccc3c(N[C@H]4CCc5ccccc54)ncnc32)C[C@@H]1O
OBSERVED RESULT: 0.743

COMPOUND: Cc1nc(Nc2ncc(C(=O)Nc3c(C)cccc3Cl)s2)cc(N2CCN(CCO)CC2)n1
OBSERVED RESULT: 1.18

COMPOUND: Cn1nnc2c(C(N)=O)ncn2c1=O [temozolomide]
OBSERVED RESULT: 0.816

COMPOUND: C[C@@H]1CN(CC(=O)Nc2ccc3c(c2)Cc2cccc(-c4cc(=O)cc(N5CCOCC5)o4)c2S3)C[C@H](C)O1
OBSERVED RESULT: 0.976

COMPOUND: Oc1ccc(/C=C/c2cc(O)cc(O)c2)cc1
OBSERVED RESULT: 0.896

COMPOUND: COc1cc([C@@H]2c3cc4c(cc3[C@@H](O[C@@H]3O[C@@H]5CO[C@@H](C)O[C@H]5[C@H](O)[C@H]3O)[C@H]3COC(=O)[C@H]23)OCO4)cc(OC)c1O [etoposide]
OBSERVED RESULT: 0.966

COMPOUND: CS(=O)(=O)c1ccc(C(=O)Nc2ccc(Cl)c(-c3ccccn3)c2)c(Cl)c1
OBSERVED RESULT: 1.07

COMPOUND: COc1cc2nccc(Oc3ccc(NC(=O)NC4CC4)c(Cl)c3)c2cc1C(N)=O
OBSERVED RESULT: 0.728

COMPOUND: C[C@]12CC[C@H](O)CC1=CC[C@@H]1[C@@H]2CC[C@]2(C)C(c3cccnc3)=CC[C@@H]12
OBSERVED RESULT: 1.04

COMPOUND: COc1cc2nccc(Oc3ccc(NC(=O)C4(C(=O)Nc5ccc(F)cc5)CC4)cc3)c2cc1OC [Cabozantinib]
OBSERVED RESULT: 0.718

COMPOUND: CCCCCCCCCCCCCCCC(=O)Nc1ccn([C@@H]2O[C@H](CO)[C@@H](O)[C@@H]2C#N)c(=O)n1
OBSERVED RESULT: 0.952

COMPOUND: C[C@H](CN(C)C)Oc1nc(Nc2cc3cccc(Cl)c3cn2)cnc1C#N
OBSERVED RESULT: 0.863

COMPOUND: O=C(O)CC[C@H]1CC[C@@](c2cc(F)ccc2F)(S(=O)(=O)c2ccc(Cl)cc2)CC1
OBSERVED RESULT: 0.908
